System: DNR-resistant Jurkat cells
assayName: Chemreversal50: sensitisation of DNR-resistant Jurkat cells to 100 nM DNR
Format: cell-based, human
conditionDescription: Homo sapiens, Jurkat, 168 h, read-out: Chemorev50 (SD), 50% of reversal of chemotherapeutic effect determined in in vitro screen
property: EC50

CC[C@H](c1ccc(O)cc1)[C@@H](CC)c1ccc(O)cc1
12.8 µM

Now examine the next entry.
Q: Name the reported EC50 value associated with the compound Cc1c2ccncc2c(C)c2c1[nH]c1ccccc12
A: 1.8 µM

* * *

targetDesc: ABCB1 (Homo sapiens)
Sequence (P08183 whole entry): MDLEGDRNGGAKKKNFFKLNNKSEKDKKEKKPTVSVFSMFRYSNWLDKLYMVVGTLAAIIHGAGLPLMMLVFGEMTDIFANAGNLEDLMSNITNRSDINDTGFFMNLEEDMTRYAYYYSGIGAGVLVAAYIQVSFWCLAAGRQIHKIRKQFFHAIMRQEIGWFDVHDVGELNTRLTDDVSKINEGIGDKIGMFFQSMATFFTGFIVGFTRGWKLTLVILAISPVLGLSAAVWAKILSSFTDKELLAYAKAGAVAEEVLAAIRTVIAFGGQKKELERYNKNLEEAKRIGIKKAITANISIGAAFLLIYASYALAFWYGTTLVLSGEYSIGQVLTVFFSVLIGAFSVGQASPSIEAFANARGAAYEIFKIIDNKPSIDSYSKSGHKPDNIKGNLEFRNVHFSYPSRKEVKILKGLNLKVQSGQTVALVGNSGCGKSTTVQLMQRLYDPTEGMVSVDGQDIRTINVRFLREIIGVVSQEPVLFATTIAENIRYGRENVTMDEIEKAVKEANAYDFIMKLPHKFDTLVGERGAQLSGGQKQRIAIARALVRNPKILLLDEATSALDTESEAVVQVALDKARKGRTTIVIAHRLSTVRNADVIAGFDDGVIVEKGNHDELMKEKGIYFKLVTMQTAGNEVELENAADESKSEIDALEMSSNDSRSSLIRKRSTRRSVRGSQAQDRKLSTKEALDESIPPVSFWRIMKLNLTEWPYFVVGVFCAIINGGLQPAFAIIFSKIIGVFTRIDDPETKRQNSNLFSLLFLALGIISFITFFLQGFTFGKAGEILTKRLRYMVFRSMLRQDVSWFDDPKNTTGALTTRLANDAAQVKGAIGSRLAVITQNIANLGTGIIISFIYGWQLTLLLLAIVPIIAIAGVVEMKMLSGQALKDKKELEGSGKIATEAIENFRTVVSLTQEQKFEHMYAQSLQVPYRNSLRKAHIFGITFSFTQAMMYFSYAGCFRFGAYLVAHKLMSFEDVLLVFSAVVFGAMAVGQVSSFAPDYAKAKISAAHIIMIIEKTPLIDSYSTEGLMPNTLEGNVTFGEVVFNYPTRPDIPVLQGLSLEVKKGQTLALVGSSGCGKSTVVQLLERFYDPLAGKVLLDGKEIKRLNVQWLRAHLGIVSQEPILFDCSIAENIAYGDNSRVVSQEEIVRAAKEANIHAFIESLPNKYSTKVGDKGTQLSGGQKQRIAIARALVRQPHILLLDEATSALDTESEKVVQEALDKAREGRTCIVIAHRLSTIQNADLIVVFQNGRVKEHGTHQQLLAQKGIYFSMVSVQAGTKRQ
assayName: JC-1 efflux HyperCyt flow cytometry assay (ABCB1 reversal)
Structures can show the parent of a compound that is named as a salt.
property: pIC50
In simple prose, pIC50 is minus the logarithm base ten of a concentration in moles per litre.

Observe how each entry below is paired with its result.
COC(=O)[C@H]1[C@H]2C[C@@H]3c4[nH]c5cc(OC)ccc5c4CCN3C[C@H]2C[C@@H](OC(=O)/C=C/c2cc(OC)c(OC)c(OC)c2)[C@@H]1OC [Rescinnamine, rescinnamine]
5.82
CC[C@H](c1ccc(O)cc1)[C@@H](CC)c1ccc(O)cc1 [Hexestrol, hexestrol]
5.08
CC(C)COCC(CN(Cc1ccccc1)c1ccccc1)N1CCCC1 (stereo not drawn) [Bepridil HCL, bepridil]
5.13
Cc1c2ccncc2c(C)c2c1[nH]c1ccccc12 [Ellipticine, ellipticine]
6.00
Cc1cccc(C)c1NC(=O)CN1CCN(CCCC(c2ccc(F)cc2)c2ccc(F)cc2)CC1 [Lidoflazine, lidoflazine]
5.27

Kindly consider the entry below.
Q: Which pIC50 is reported for this molecule? Fc1ccc(C(OCCN2CCN(CCCc3ccccc3)CC2)c2ccc(F)cc2)cc1 [GBR 12909 HCL, GBR 12909]
A: 5.34

FYI, the data here is from patent US20090208493A1.
